# Test system: ED cells (E. derm NBM-6, ATCC CCL-57)
# MEASUREMENT PROTOCOL: cell viability (ATP, CellTiter-Glo) relative to untreated control (fraction of control); higher = less cytotoxic
# EXPERIMENTAL CONTEXT: 300 µM; incubation time: 144h
READOUT LABEL: cell viability

{"columns": ["QUERY SMILES", "TESTED TARGET", "READOUT LABEL", "DATA VALUE"],
 "data": [
  ["Cc1nnc(C(=O)NC(C)(C)c2nc(C(=O)NCc3ccc(F)cc3)c(O)c(=O)n2C)o1", "ED cells (E. derm NBM-6, ATCC CCL-57)", "cell viability", 0.955],
  ["Cc1cn([C@H]2C[C@H](N=[N+]=[N-])[C@@H](CO)O2)c(=O)[nH]c1=O", "ED cells (E. derm NBM-6, ATCC CCL-57)", "cell viability", 1.06],
  ["Cc1ccnc2c1NC(=O)c1cccnc1N2C1CC1", "ED cells (E. derm NBM-6, ATCC CCL-57)", "cell viability", 0.848],
  ["Cc1cc(C#N)cc(C)c1Oc1nc(Nc2ccc(C#N)cc2)nc(N)c1Br", "ED cells (E. derm NBM-6, ATCC CCL-57)", "cell viability", 0.525],
  ["CC(C)c1nc(CN(C)C(=O)N[C@H](C(=O)N[C@@H](Cc2ccccc2)C[C@H](O)[C@H](Cc2ccccc2)NC(=O)OCc2cncs2)C(C)C)cs1", "ED cells (E. derm NBM-6, ATCC CCL-57)", "cell viability", 0.00437],
  ["Nc1nc(NC2CC2)c2ncn([C@H]3C=C[C@@H](CO)C3)c2n1", "ED cells (E. derm NBM-6, ATCC CCL-57)", "cell viability", 0.458],
  ["Nc1nc(=O)n([C@@H]2CS[C@H](CO)O2)cc1F", "ED cells (E. derm NBM-6, ATCC CCL-57)", "cell viability", 1.02]
]}
